target: native mouse MET on living mouse cells (mouse, UniProt P16056 25-1379); assay: cell-based or functional assay
Item-by-item account of cell scattering score, MLP29, 0.111 nM
State just the number; it will be interpreted in score 0-4.

Here's what some known entries look like.
>>> quantitative_result("chimeric llama-human IgG1 mAb 71G12 (antibody, V domains shown) VH: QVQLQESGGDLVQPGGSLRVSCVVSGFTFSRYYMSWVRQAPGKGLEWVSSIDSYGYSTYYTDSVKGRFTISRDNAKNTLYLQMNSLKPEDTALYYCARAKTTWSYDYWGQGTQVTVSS VL: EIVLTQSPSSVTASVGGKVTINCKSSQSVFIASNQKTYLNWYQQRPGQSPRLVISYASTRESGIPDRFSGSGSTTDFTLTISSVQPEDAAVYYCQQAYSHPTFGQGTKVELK")
0
>>> quantitative_result("chimeric llama-human IgG1 mAb 71D6 (antibody, V domains shown) VH: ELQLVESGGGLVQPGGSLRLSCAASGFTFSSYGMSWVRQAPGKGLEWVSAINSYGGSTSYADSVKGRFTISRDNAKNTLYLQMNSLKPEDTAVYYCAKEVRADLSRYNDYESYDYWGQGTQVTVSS VL: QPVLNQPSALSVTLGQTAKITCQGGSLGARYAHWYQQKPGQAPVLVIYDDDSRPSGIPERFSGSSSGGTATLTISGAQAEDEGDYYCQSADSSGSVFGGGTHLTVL")
4

// cell scattering score, MLP29, 0.111 nM lookup, binder = chimeric llama-human IgG1 mAb 71D4 (antibody, V domains shown) VH: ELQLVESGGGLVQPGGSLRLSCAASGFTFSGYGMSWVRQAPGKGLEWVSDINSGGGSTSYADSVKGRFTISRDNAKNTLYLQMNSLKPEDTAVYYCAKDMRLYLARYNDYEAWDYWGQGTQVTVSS VL: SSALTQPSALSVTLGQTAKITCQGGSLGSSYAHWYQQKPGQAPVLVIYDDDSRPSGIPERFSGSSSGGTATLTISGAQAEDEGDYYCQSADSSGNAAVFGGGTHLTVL , result: 0

// cell scattering score, MLP29, 0.111 nM lookup, binder = chimeric llama-human IgG1 mAb 76G7 (antibody, V domains shown) VH: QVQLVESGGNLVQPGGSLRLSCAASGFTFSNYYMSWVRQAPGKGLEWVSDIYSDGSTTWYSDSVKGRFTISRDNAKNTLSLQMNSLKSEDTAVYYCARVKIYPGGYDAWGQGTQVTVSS VL: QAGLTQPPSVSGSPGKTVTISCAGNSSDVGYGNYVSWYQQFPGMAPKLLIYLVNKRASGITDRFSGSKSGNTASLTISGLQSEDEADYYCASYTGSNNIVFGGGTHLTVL , result: 0
